Measured values drawn from PubChem BioAssay AID1963832 for this set.

# Test system: 885724-159-R-J1-PDC complex spheroid viability
# protocol notes: Anticancer human tumor 885724-159-R-J1-PDC patient-derived pancreatic adenocarcinoma cell line growth inhibition [POLQ]
# particulars: second compound 3.16 µM; first compound 10 µM; hits give low values
Assign viability, T/C to each entry below.
Answers are plain numbers, in %.

Below, each entry is followed by its recorded viability, T/C result.
# compound, result units, viability, T/C
rows = [
    ("CC1COCCN1c1cc(C2(S(C)(=N)=O)CC2)nc(-c2ccnc3[nH]ccc23)n1 (stereo unspecified) + Cc1cccc(N(C)C(=O)C2C(O)CCN2c2nc(C)cc(C(F)(F)F)c2C#N)c1", "%", 51.3),
    ("CC1COCCN1c1cc(-c2ccnn2C)c2ccnc(-c3ccn[nH]3)c2n1 (stereo unspecified) + COC1C(OC(N)=O)C(O)C(Oc2ccc3c(O)c(NC(=O)c4ccc(O)c(CC=C(C)C)c4)c(=O)oc3c2C)OC1(C)C", "%", 33.8),
    ("COc1ccc([C@@H](O)c2cc(-c3ncnc4cc(N5CCOCC5)ccc34)c(F)cc2Cl)nn1 + Nc1ccc(C#CCN(C(=O)Cc2ncc(C(F)(F)F)cc2C(F)(F)F)c2ccc(F)cc2)nn1", "%", 33.5),
    ("C#Cc1c(F)ccc2cc(O)cc(-c3ncc4c(N5CC6CCC(C5)N6)nc(OCC56CCCN5CC(F)C6)nc4c3F)c12 (stereo unspecified) + Nc1ccc(C#CCN(C(=O)Cc2ncc(C(F)(F)F)cc2C(F)(F)F)c2ccc(F)cc2)nn1", "%", 24.5),
    ("CC1COCCN1c1cc(-c2ccnn2C)c2ccnc(-c3ccn[nH]3)c2n1 (stereo unspecified) + Nc1ccc(C#CCN(C(=O)Cc2ncc(C(F)(F)F)cc2C(F)(F)F)c2ccc(F)cc2)nn1", "%", 43.8),
    ("C#Cc1c(F)ccc2cc(O)cc(-c3ncc4c(N5CC6CCC(C5)N6)nc(OCC56CCCN5CC(F)C6)nc4c3F)c12 (stereo unspecified) + Cc1cccc(N(C)C(=O)C2C(O)CCN2c2nc(C)cc(C(F)(F)F)c2C#N)c1", "%", 19),
]

Would you mind listing viability, T/C for each of the following compounds?
1. O=C(Nc1ccc(O)c(NS(=O)(=O)c2ccc(F)cc2)c1)c1ccc(-c2ccccc2)cc1 + Nc1ccc(C#CCN(C(=O)Cc2ncc(C(F)(F)F)cc2C(F)(F)F)c2ccc(F)cc2)nn1
2. CC1COCCN1c1cc(C2(O)CC3CCC(C2)O3)c2cnn(-c3ccn[nH]3)c2n1 (stereo unspecified) + Nc1ccc(C#CCN(C(=O)Cc2ncc(C(F)(F)F)cc2C(F)(F)F)c2ccc(F)cc2)nn1
3. C=CC(=O)N1CCN(c2nc(=O)n(-c3c(C)ccnc3C(C)C)c3nc(-c4c(O)cccc4F)c(F)cc23)C(C)C1 (stereo unspecified) + Nc1ccc(C#CCN(C(=O)Cc2ncc(C(F)(F)F)cc2C(F)(F)F)c2ccc(F)cc2)nn1
4. CCCS(=O)(=O)Nc1ccc(F)c(C(=O)c2c[nH]c3ncc(-c4ccc(Cl)cc4)cc23)c1F + Nc1ccc(C#CCN(C(=O)Cc2ncc(C(F)(F)F)cc2C(F)(F)F)c2ccc(F)cc2)nn1
5. COc1cccc2c1C(=O)c1c(O)c3c(c(O)c1C2=O)CC(O)(C(=O)CO)CC3OC1CC(N)C(O)C(C)O1 (stereo unspecified) + Cc1cccc(N(C)C(=O)C2C(O)CCN2c2nc(C)cc(C(F)(F)F)c2C#N)c1

[95.7, 30.4, 83.6, 85, 6.91]

###

Assign viability, T/C to each entry below.
# Tested on: 885724-159-R-J1-PDC complex spheroid viability
# protocol notes: Anticancer human tumor 885724-159-R-J1-PDC cell line growth inhibition [POLQ];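 note: spheroids exposed to compounds for 7 days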
# particulars: second compound 1 µM; first compound 10 µM; hits give low values
Numbers only, in %.

# molecule, recorded measurement
data = [
    ("CC1COCCN1c1cc(C2(O)CC3CCC(C2)O3)c2cnn(-c3ccn[nH]3)c2n1 (stereo not given) + COC1C(OC(N)=O)C(O)C(Oc2ccc3c(O)c(NC(=O)c4ccc(O)c(CC=C(C)C)c4)c(=O)oc3c2C)OC1(C)C", 25.4),
    ("CCCS(=O)(=O)Nc1ccc(F)c(C(=O)c2c[nH]c3ncc(-c4ccc(Cl)cc4)cc23)c1F + Nc1ccc(C#CCN(C(=O)Cc2ncc(C(F)(F)F)cc2C(F)(F)F)c2ccc(F)cc2)nn1", 95),
    ("C=CC(=O)N1CCN(c2nc(=O)n(-c3c(C)ccnc3C(C)C)c3nc(-c4c(O)cccc4F)c(F)cc23)C(C)C1 (stereo not given) + Nc1ccc(C#CCN(C(=O)Cc2ncc(C(F)(F)F)cc2C(F)(F)F)c2ccc(F)cc2)nn1", 97.3),
]

Would you mind listing viability, T/C for each of the following molecules?
1. CC1COCCN1c1cc(C2(S(C)(=N)=O)CC2)nc(-c2ccnc3[nH]ccc23)n1 (stereo not given) + Nc1ccc(C#CCN(C(=O)Cc2ncc(C(F)(F)F)cc2C(F)(F)F)c2ccc(F)cc2)nn1
2. CC(C)n1c(=O)n(C)c2cnc3cc(F)c(-c4ccc(OCCCN5CCCCC5)nc4)cc3c21 + Nc1ccc(C#CCN(C(=O)Cc2ncc(C(F)(F)F)cc2C(F)(F)F)c2ccc(F)cc2)nn1

1: 45.4; 2: 84.9

###

# System: 885724-159-R-J1-PDC complex spheroid viability
# protocol notes: Anticancer human tumor 885724-159-R-J1-PDC cell line growth inhibition [POLQ];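 note: spheroids exposed to compounds for 7 days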
# particulars: second compound 10 µM; first compound 0.316 µM; hits give low values
Lab note: anything with viability, T/C below 90% is marked t; values at 90% or higher are marked f.

# compound, cat
measured = [
    ("CC(C)n1c(=O)n(C)c2cnc3cc(F)c(-c4ccc(OCCCN5CCCCC5)nc4)cc3c21 + Cc1cccc(N(C)C(=O)C2C(O)CCN2c2nc(C)cc(C(F)(F)F)c2C#N)c1", "f"),
    ("COc1ccc([C@@H](O)c2cc(-c3ncnc4cc(N5CCOCC5)ccc34)c(F)cc2Cl)nn1 + Cc1cccc(N(C)C(=O)C2C(O)CCN2c2nc(C)cc(C(F)(F)F)c2C#N)c1", "t"),
    ("COc1cc2cc(C(=O)CCC(=O)O)sc2cc1OC + Nc1ccc(C#CCN(C(=O)Cc2ncc(C(F)(F)F)cc2C(F)(F)F)c2ccc(F)cc2)nn1", "f"),
]

Item COc1cccc2c1C(=O)c1c(O)c3c(c(O)c1C2=O)CC(O)(C(=O)CO)CC3OC1CC(N)C(O)C(C)O1 (stereo not given) + COC1C(OC(N)=O)C(O)C(Oc2ccc3c(O)c(NC(=O)c4ccc(O)c(CC=C(C)C)c4)c(=O)oc3c2C)OC1(C)C : viability, T/C beneath 90%, strictly? t

###

Assign viability, T/C to each entry below.
# System: 885724-159-R-J1-PDC complex spheroid viability
# protocol notes: Anticancer human tumor 885724-159-R-J1-PDC cell line growth inhibition [POLQ];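 note: spheroids exposed to compounds for 7 days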
# particulars: second compound 3.16 µM; first compound 10 µM; hits give low values
# Description: Multicellular complex tumor spheroid response to Polymerase (POL) inhibitors (novobiocin, ART-558, RP6685) in combination with a variety of drugs and investigational agents in selected tumor cell lines The POL inhibitors (novobiocin, ART-558, and RP6685) were evaluated both individually and in combination with standard of care and investigational anticancer small molecules within a complex spheroid model of solid tumors. . […]
Numbers only, in %.

Below, each entry is followed by its recorded viability, T/C result.
# compound, result units, viability, T/C
records = [
    ("CC(C)n1c(=O)n(C)c2cnc3cc(F)c(-c4ccc(OCCCN5CCCCC5)nc4)cc3c21 + Nc1ccc(C#CCN(C(=O)Cc2ncc(C(F)(F)F)cc2C(F)(F)F)c2ccc(F)cc2)nn1", "%", 92.1),
    ("CCCS(=O)(=O)Nc1ccc(F)c(C(=O)c2c[nH]c3ncc(-c4ccc(Cl)cc4)cc23)c1F + Cc1cccc(N(C)C(=O)C2C(O)CCN2c2nc(C)cc(C(F)(F)F)c2C#N)c1", "%", 86.6),
    ("COc1cc2cc(C(=O)CCC(=O)O)sc2cc1OC + Nc1ccc(C#CCN(C(=O)Cc2ncc(C(F)(F)F)cc2C(F)(F)F)c2ccc(F)cc2)nn1", "%", 86.4),
    ("O=C(Nc1ccc(O)c(NS(=O)(=O)c2ccc(F)cc2)c1)c1ccc(-c2ccccc2)cc1 + Cc1cccc(N(C)C(=O)C2C(O)CCN2c2nc(C)cc(C(F)(F)F)c2C#N)c1", "%", 107),
    ("Nc1ccn(C2OC(CO)C(O)C2(F)F)c(=O)n1 (stereo unspecified) + COC1C(OC(N)=O)C(O)C(Oc2ccc3c(O)c(NC(=O)c4ccc(O)c(CC=C(C)C)c4)c(=O)oc3c2C)OC1(C)C", "%", 44.2),
]

Given COc1cc2cc(C(=O)CCC(=O)O)sc2cc1OC + Cc1cccc(N(C)C(=O)C2C(O)CCN2c2nc(C)cc(C(F)(F)F)c2C#N)c1 , state its recorded viability, T/C. 88.6
